# systemName: T1, mouse Liprin-α3 tSAM (residues 808–1114) (mouse, UniProt P60469 808-1114)
# T1 construct: mouse Liprin-α3, tandem SAM domain (αN, SAM1-SAM3), residues 808-1114; also called WT; source: E. coli Rosetta (DE3), purified (Glutathione Sepharose, Resource Q, GST cleaved off by HRV3c protease, Superdex 200); not shown: GST, N-terminal, cleaved
# T1 sequence (P60469 808-1114): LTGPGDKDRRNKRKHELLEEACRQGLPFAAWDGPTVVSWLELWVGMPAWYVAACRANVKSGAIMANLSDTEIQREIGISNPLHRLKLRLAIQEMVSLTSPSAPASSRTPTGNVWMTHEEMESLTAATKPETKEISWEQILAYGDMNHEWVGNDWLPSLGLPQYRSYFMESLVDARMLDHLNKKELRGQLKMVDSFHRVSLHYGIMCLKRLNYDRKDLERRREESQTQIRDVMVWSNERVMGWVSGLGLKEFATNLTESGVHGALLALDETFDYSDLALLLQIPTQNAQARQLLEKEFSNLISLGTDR
# assayRemarks: SPR; Biacore T200, 25 °C, 10 mM Hepes-NaOH pH 7.5, 150 mM NaCl, 0.005% Tween-20; wild-type or mutant PTPδ D2-His6 amine-coupled on a CM5 chip; wild-type or mutant Liprin-α3 tSAM injected, twofold dilutions from 40 µM to 39 nM; equilibrium KD
# details: both partners purified
measurementType: Kd (µM)
Express your answer in µM, writing the number without its unit.

>  <binder>
PTPδ D2-His6 Y1506A (domain or fragment) NTEVPARNLYAYIQKLTQIETGENVTGMELEFKRLASSKAHTSRFISANLPCNKFKNRLVNIMPYESTRVCLQPIRGVEGSDYINASFLDGYRQQKAYIATQGPLAETTEDFWRMLWEHNSTIVVMLTKLREMGREKCHQYWPAERSARYQYFVVDPMAEYNMPQYILREFKVTDARDGQSRTVRQFQFTDWPEQGVPKSGEGFIDFIGQVHKTKEQFGQDGPISVHCSAGVGRTGVFITLSIVLERMRYEGVVDIFQTVKMLRTQRPAMVQTEDQYQFCYRAALEYLGSFDHAAT

>  <readoutUnits>
µM

>  <Kd>
11.4

$$$$
>  <binder>
PTPδ D2-His6 F1399A (domain or fragment) NTEVPARNLYAYIQKLTQIETGENVTGMELEFKRLASSKAHTSRFISANLPCNKFKNRLVNIMPYESTRVCLQPIRGVEGSDYINASFLDGYRQQKAYIATQGPLAETTEDFWRMLWEHNSTIVVMLTKLREMGREKCHQYWPAERSARYQYFVVDPMAEYNMPQYILREFKVTDARDGQSRTVRQAQFTDWPEQGVPKSGEGFIDFIGQVHKTKEQFGQDGPISVHCSAGVGRTGVFITLSIVLERMRYEGVVDIFQTVKMLRTQRPAMVQTEDQYQFCYRAALEYLGSFDHYAT

>  <readoutUnits>
µM

>  <Kd>
32

$$$$

Let's switch to this binder now.
GET /value?item= PTPδ D2-His6 D1504A (domain or fragment) NTEVPARNLYAYIQKLTQIETGENVTGMELEFKRLASSKAHTSRFISANLPCNKFKNRLVNIMPYESTRVCLQPIRGVEGSDYINASFLDGYRQQKAYIATQGPLAETTEDFWRMLWEHNSTIVVMLTKLREMGREKCHQYWPAERSARYQYFVVDPMAEYNMPQYILREFKVTDARDGQSRTVRQFQFTDWPEQGVPKSGEGFIDFIGQVHKTKEQFGQDGPISVHCSAGVGRTGVFITLSIVLERMRYEGVVDIFQTVKMLRTQRPAMVQTEDQYQFCYRAALEYLGSFAHYAT &field=Kd returns 18
